# test_details: Half life in cynomolgus monkey at 2 mg/kg, iv and 5 mg/kg, po
# Assay type: ADME, organism-based, Macaca fascicularis
# test_parameters: in vivo
quantity: half-life
Reply with the number, then its unit.

What value of half-life has been recorded for this entry: Cc1cc(CN2C(=O)C(C3=NS(=O)(=O)c4c(CNS(C)(=O)=O)cccc43)=C(O)[C@@H]2C(C)(C)C)ccc1F
1.75 h

----------
# test_details: Metabolic stability in rat liver microsomes
# Assay type: ADME, Microsome
# test_parameters: read-out: Stability
So I've got a bunch of molecules here, and I need their microsomal CLint values.
Report as: number unit

Entry under review: Cc1cc(CN2C(=O)C(C3=NS(=O)(=O)c4c(CNS(C)(=O)=O)cccc43)=C(O)[C@@H]2C(C)(C)C)ccc1F . Reported microsomal CLint?
431 µL/min/mg

Continue with Cc1cc(CN2C(=O)C(C3=NS(=O)(=O)c4c(CN(C)S(C)(=O)=O)cccc43)=C(O)[C@@H]2C(C)(C)C)ccc1F
939 µL/min/mg

# iterate: Cc1cc(CN2C(=O)C(C3=NS(=O)(=O)c4c(CNS(N)(=O)=O)cccc43)=C(O)[C@@H]2C(C)(C)C)ccc1F
239 µL/min/mg

----------
# experimental_target: Genome polyprotein (Hepatitis C virus genotype 1b (isolate Con1) (HCV), UniProt Q9WMX2)
# Sequence (Q9WMX2 2420-3010 limits assumed): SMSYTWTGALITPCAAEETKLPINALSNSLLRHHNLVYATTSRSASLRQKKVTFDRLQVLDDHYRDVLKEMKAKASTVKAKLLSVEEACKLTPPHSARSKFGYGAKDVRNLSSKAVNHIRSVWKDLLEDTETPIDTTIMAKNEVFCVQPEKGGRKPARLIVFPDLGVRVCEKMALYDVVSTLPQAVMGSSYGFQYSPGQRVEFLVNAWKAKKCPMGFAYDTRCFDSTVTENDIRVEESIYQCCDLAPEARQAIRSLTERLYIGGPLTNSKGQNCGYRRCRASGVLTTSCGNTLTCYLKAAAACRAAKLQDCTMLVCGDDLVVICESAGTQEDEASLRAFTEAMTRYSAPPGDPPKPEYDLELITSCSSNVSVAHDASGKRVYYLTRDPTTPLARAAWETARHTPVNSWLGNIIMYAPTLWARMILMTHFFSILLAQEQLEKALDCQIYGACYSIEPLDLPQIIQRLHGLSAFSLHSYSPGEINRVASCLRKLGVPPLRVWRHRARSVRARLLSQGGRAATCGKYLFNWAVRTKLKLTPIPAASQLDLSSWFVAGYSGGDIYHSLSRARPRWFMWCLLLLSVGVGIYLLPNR
# test_details: Inhibition of […] con1 NS5B polymerase assessed as [3H]UTP incorporation into acid insoluble RNA product
quantity: pIC50
The scale used: pIC50 is minus the common logarithm of the concentration in molar units.

Requested field: pIC50. Item: CC(C)(C)[C@H]1C(O)=C(C2=NS(=O)(=O)c3c(CNS(N)(=O)=O)cccc32)C(=O)N1Cc1ccc(F)cc1
8.52

Would you kindly repeat that for CC(C)(C)[C@H]1C(O)=C(C2=NS(=O)(=O)c3c(CN4CCCCS4(=O)=O)cccc32)C(=O)N1Cc1ccc(F)cc1 ?
7.92

Now the compound CC(C)(C)[C@H]1C(O)=C(C2=NS(=O)(=O)c3c(OCS(N)(=O)=O)cccc32)C(=O)N1Cc1ccc(F)cc1
8.22

Try the compound CC(C)(C)[C@H]1C(O)=C(C2=NS(=O)(=O)c3c(NS(C)(=O)=O)cccc32)C(=O)N1Cc1ccc(F)cc1
8.30

Please answer likewise for CC(C)(C)[C@H]1C(O)=C(C2=NS(=O)(=O)c3cc(CNS(C)(=O)=O)ccc32)C(=O)N1Cc1ccc(F)cc1
7.37

Quick one: Cc1cc(CN2C(=O)C(C3=NS(=O)(=O)c4c(CNS(N)(=O)=O)cccc43)=C(O)[C@@H]2C(C)(C)C)ccc1F
8.52

Thanks! And CN(Cc1cccc2c1S(=O)(=O)N=C2C1=C(O)[C@H](C(C)(C)C)N(Cc2ccc(F)c(Cl)c2)C1=O)S(C)(=O)=O ?
8.00

Entry Cc1cc(CN2C(=O)C(C3=NS(=O)(=O)c4c(CNS(C)(=O)=O)cccc43)=C(O)[C@@H]2C(C)(C)C)ccc1F please
8.40

Next up: Cc1cc(CN2C(=O)C(C3=NS(=O)(=O)c4c(CN(C)S(C)(=O)=O)cccc43)=C(O)[C@@H]2C(C)(C)C)ccc1F
8.30

Subsequent entry: CC(C)(C)[C@H]1C(O)=C(C2=NS(=O)(=O)c3c(CCS(C)(=O)=O)cccc32)C(=O)N1Cc1ccc(F)cc1
8.40

Check CN(Cc1cccc2c1S(=O)(=O)N=C2C1=C(O)[C@H](C(C)(C)C)N(Cc2ccc(F)cc2)C1=O)S(N)(=O)=O too.
9.00

Okay, and CC(C)(C)[C@H]1C(O)=C(C2=NS(=O)(=O)c3c(OCS(C)(=O)=O)cccc32)C(=O)N1Cc1ccc(F)cc1 ?
8.05

----------
# test_details: Clearance in rat at 2 mg/kg, iv and 5 mg/kg, po
# Assay type: ADME, organism-based
# test_parameters: in vivo
Would you kindly list clearance for each of these compounds?
Write the figure, then the unit, nothing else.

Would you mind telling me what clearance value was observed for Cc1cc(CN2C(=O)C(C3=NS(=O)(=O)c4c(CN(C)S(C)(=O)=O)cccc43)=C(O)[C@@H]2C(C)(C)C)ccc1F ?
34.4 mL/min/kg

Another compound to check: Cc1cc(CN2C(=O)C(C3=NS(=O)(=O)c4c(CNS(N)(=O)=O)cccc43)=C(O)[C@@H]2C(C)(C)C)ccc1F
48 mL/min/kg

Try this compound too: Cc1cc(CN2C(=O)C(C3=NS(=O)(=O)c4c(CNS(C)(=O)=O)cccc43)=C(O)[C@@H]2C(C)(C)C)ccc1F
8.4 mL/min/kg

----------
# test_details: Metabolic stability in cynomolgus monkey liver microsomes
# Type: ADME, Macaca fascicularis, Microsome
# test_parameters: read-out: Stability
quantity: microsomal CLint (µL/min/mg)
Record the value in µL/min/mg, omitting the unit from your answer.

# microsomal CLint lookup, item Cc1cc(CN2C(=O)C(C3=NS(=O)(=O)c4c(CNS(C)(=O)=O)cccc43)=C(O)[C@@H]2C(C)(C)C)ccc1F
23

----------
# Tested on: Hepatitis C virus
# test_details: Selectivity ratio, EC50 for HCV1b in presence of 40% human serum to EC50 for HCV1b in presence of 5% fetal bovine serum
# Type: functional, Hepacivirus hominis, genotype 1b
quantity: Ratio IC50
In your answer, state the number alone without any accompanying words.

Value lookup for Ratio IC50; key = CC(C)(C)[C@H]1C(O)=C(C2=NS(=O)(=O)c3c(OCS(N)(=O)=O)cccc32)C(=O)N1Cc1ccc(F)cc1
12.7

Queued: CC(C)(C)[C@H]1C(O)=C(C2=NS(=O)(=O)c3c(CN4CCCCS4(=O)=O)cccc32)C(=O)N1Cc1ccc(F)cc1
23.1

Cool, now Cc1cc(CN2C(=O)C(C3=NS(=O)(=O)c4c(CN(C)S(C)(=O)=O)cccc43)=C(O)[C@@H]2C(C)(C)C)ccc1F
8.27

And CC(C)(C)[C@H]1C(O)=C(C2=NS(=O)(=O)c3c(OCS(C)(=O)=O)cccc32)C(=O)N1Cc1ccc(F)cc1 ?
19.8

Then CC(C)(C)[C@H]1C(O)=C(C2=NS(=O)(=O)c3c(CCS(C)(=O)=O)cccc32)C(=O)N1Cc1ccc(F)cc1 ?
17

Please answer likewise for CC(C)(C)[C@H]1C(O)=C(C2=NS(=O)(=O)c3c(CNS(C)(=O)=O)cccc32)C(=O)N1Cc1ccc(F)cc1
37.3

Same read-out for CN(Cc1cccc2c1S(=O)(=O)N=C2C1=C(O)[C@H](C(C)(C)C)N(Cc2ccc(F)c(Cl)c2)C1=O)S(C)(=O)=O ?
28.1

----------
# test_details: Oral bioavailability in cynomolgus monkey at 5 mg/kg
# Format: ADME, organism-based, Macaca fascicularis
# test_parameters: in vivo
quantity: bioavailability (%)
The reply should contain only the number, in %.

Please give the measured bioavailability for this compound: Cc1cc(CN2C(=O)C(C3=NS(=O)(=O)c4c(CNS(C)(=O)=O)cccc43)=C(O)[C@@H]2C(C)(C)C)ccc1F
11

----------
# Tested on: Hepatitis C virus
# test_details: Antiviral activity against HCV1b infected in human 2209-23 cells assessed as inhibition of virus RNA replication by Renilla luciferase reporter gene assay in presence of 5% fetal bovine serum
# Assay type: functional, organism-based, Hepacivirus hominis
# test_parameters: genotype 1b
Could you please report measured pEC50 for the items listed next?
Please express pEC50 as -log10 of the molar concentration.

Value wanted: pEC50 (Hepatitis C virus) of entry CC(C)(C)[C@H]1C(O)=C(C2=NS(=O)(=O)c3c(CN4CCCCS4(=O)=O)cccc32)C(=O)N1Cc1ccc(F)cc1
6.69

And then Cc1cc(CN2C(=O)C(C3=NS(=O)(=O)c4c(CNS(C)(=O)=O)cccc43)=C(O)[C@@H]2C(C)(C)C)ccc1F , what is it?
7.09

Do the same for CN(Cc1cccc2c1S(=O)(=O)N=C2C1=C(O)[C@H](C(C)(C)C)N(Cc2ccc(F)cc2)C1=O)S(N)(=O)=O please
6.57

What about this compound? CN(Cc1cccc2c1S(=O)(=O)N=C2C1=C(O)[C@H](C(C)(C)C)N(Cc2ccc(F)c(Cl)c2)C1=O)S(C)(=O)=O
6.97

Now the same for Cc1cc(CN2C(=O)C(C3=NS(=O)(=O)c4c(CNS(N)(=O)=O)cccc43)=C(O)[C@@H]2C(C)(C)C)ccc1F
7.12

Another compound: CC(C)(C)[C@H]1C(O)=C(C2=NS(=O)(=O)c3c(OCS(C)(=O)=O)cccc32)C(=O)N1Cc1ccc(F)cc1
6.63

Can you handle CC(C)(C)[C@H]1C(O)=C(C2=NS(=O)(=O)c3c(CNS(N)(=O)=O)cccc32)C(=O)N1Cc1ccc(F)cc1 next?
6.98

----------
For each record, write down the corresponding half-life.
# test_details: Half life in rat at 2 mg/kg, iv and 5 mg/kg, po
# Type: ADME, organism-based
# test_parameters: in vivo
Give the value, in units of h, as a plain number.

Please give the measured half-life for this compound: Cc1cc(CN2C(=O)C(C3=NS(=O)(=O)c4c(CNS(N)(=O)=O)cccc43)=C(O)[C@@H]2C(C)(C)C)ccc1F
4.7

Try this compound next: Cc1cc(CN2C(=O)C(C3=NS(=O)(=O)c4c(CN(C)S(C)(=O)=O)cccc43)=C(O)[C@@H]2C(C)(C)C)ccc1F
3.37

Ok, now Cc1cc(CN2C(=O)C(C3=NS(=O)(=O)c4c(CNS(C)(=O)=O)cccc43)=C(O)[C@@H]2C(C)(C)C)ccc1F
4.18
